- subjectOfTest: T1, Human CD3eg linker (human)
- T1 construct: Single chain: epsilon and gamma subunits of human CD3 joined by a 29-mer linker, Flag-tag at the C-terminus; also called recombinant human CD3
- T1 chain: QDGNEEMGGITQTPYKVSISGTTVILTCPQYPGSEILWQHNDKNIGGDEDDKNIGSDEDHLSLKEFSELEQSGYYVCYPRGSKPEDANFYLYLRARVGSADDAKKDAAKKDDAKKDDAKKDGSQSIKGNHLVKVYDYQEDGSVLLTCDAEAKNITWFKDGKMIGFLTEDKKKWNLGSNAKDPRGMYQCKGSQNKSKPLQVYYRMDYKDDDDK
- assayName: Biacore SPR, vs template H183/L072
readout: fold change of affinity (fold)
Please respond with the number in fold and leave the unit unwritten.

Please look up its fold change of affinity: H183/L072 VH L100dA (antibody, name in Kabat numbering, V domains shown) VH: QVQLVESGGGLVQPGRSLRLSCAASGFTFSNAWMHWVRQAPGKGLEWVAQIKDKGNAYAAYYAPSVKGRFTISRDDSKNSIYLQMNSLKTEDTAVYYCHYVHYASASTVAPAFGVDAWGQGTTVTVSS VL: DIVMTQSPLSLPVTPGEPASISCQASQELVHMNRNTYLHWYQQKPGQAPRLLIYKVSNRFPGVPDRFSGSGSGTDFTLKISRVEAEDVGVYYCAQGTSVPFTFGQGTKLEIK 1.2

Similarly, H183/L072 VH G52cQ (antibody, name in Kabat numbering, V domains shown) VH: QVQLVESGGGLVQPGRSLRLSCAASGFTFSNAWMHWVRQAPGKGLEWVAQIKDKQNAYAAYYAPSVKGRFTISRDDSKNSIYLQMNSLKTEDTAVYYCHYVHYASASTVLPAFGVDAWGQGTTVTVSS VL: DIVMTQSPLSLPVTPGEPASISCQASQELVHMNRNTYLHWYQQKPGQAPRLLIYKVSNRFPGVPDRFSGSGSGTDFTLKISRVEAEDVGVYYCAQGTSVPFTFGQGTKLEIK ? 1.9
